Data provenance is patent US8357717B2.

- Study Target: B1R receptor of the rat (rB1R) (Rattus norvegicus, UniProt P97583)
- Construct: expressed in transfected cells; host or cells: CHO K1 cells, stably transfected
- Run Description: FLIPR Ca2+ functional study on bradykinin receptor 1, rB1R cells (CHO K1)
- Assay type: cell-based
- Condition Info: 10 μM test substance; CHO K1 cells with rat B1R; agonist Des-Arg9-bradykinin at EC80; read-out: B1R antagonism, rat [10 μM] % inhibition
Listing: inhibition at 10 µM of selected compounds
Give the value, in units of %, as a plain number.

Cc1ccc(Cl)c(S(=O)(=O)N2CCCc3ccc(CC(=O)N4CCC5(CC4)CCN(c4ccncc4)CC5)cc32)c1Cl [Compound G-66]	100
COc1ccc(S(=O)(=O)N2CCc3ccc(C(=O)N4CCC5(CC4)CCN(c4ccncc4)CC5)cc3C2)c2ccccc12 [Compound G-48]	95
O=C(Nc1ccc(Cl)c(Cl)c1)N1CCc2onc(C(=O)N3CCC4(CC3)CCN(c3ccncc3)CC4)c2C1 [Compound G-46]	57

Param item: O=C(Cc1ccccc1Cl)N1CCc2ccc(C(=O)N3CCC4(CC3)CCN(c3ccncc3)CC4)cc2C1 [Compound G-43] ; param system: B1R receptor of the rat (rB1R) (Rattus norvegicus, UniProt P97583); output inhibition at 10 µM: 102

B1R receptor of the rat (rB1R) (Rattus norvegicus, UniProt P97583) data for CC(C)(C)c1ccc(C(=O)N2CCc3ccc(C(=O)N4CCC5(CC4)CCN(c4ccncc4)CC5)cc3C2)s1 [Compound G-63] ; its inhibition at 10 µM: 80

Recorded inhibition at 10 µM for Cc1ccc(S(=O)(=O)N2CCc3ccc(C(=O)N4CCC5(CC4)CCN(c4ccncc4)CC5)cc3C2)c2ccccc12 [Compound G-47] on B1R receptor of the rat (rB1R) (Rattus norvegicus, UniProt P97583) was 80

Given the compound Cc1ccc(C(=O)N2CCc3ccc(C(=O)N4CCC5(CC4)CCN(c4ccncc4)CC5)cc3C2)s1 [Compound G-58] and test system B1R receptor of the rat (rB1R) (Rattus norvegicus, UniProt P97583), the measured inhibition at 10 µM is 91

I looked up COc1cc(C)c(S(=O)(=O)N2CCc3ccc(C(=O)N4CCC5(CC4)CCN(c4ccncc4)CC5)cc3C2)c(C)c1 [Compound G-04] and its inhibition at 10 µM for B1R receptor of the rat (rB1R) (Rattus norvegicus, UniProt P97583) was 99

Field inhibition at 10 µM (B1R receptor of the rat (rB1R) (Rattus norvegicus, UniProt P97583)), entry Cc1cccc(Cl)c1S(=O)(=O)N1CCCc2ccc(CC(=O)N3CCC4(CCN(c5ccncc5)CC4)C3)cc21 [Compound G-51] : 106

----------
- Study Target: B1R receptor of the rat (rB1R) (Rattus norvegicus)
- Construct: expressed in transfected cells; host or cells: CHO K1 cells, stably transfected
- Sequence (P97583 1-337): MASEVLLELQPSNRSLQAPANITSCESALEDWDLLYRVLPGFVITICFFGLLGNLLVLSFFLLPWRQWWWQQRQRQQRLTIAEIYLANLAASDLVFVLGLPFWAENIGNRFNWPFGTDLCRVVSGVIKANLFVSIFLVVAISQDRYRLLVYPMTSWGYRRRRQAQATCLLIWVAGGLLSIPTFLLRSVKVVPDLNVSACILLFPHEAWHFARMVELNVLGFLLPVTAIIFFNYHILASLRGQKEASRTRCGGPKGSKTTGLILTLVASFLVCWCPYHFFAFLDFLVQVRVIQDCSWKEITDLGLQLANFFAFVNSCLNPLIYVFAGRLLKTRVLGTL
- Run Description: FLIPR Ca2+ functional study on bradykinin receptor 1, rB1R cells (CHO K1)
- Format: cell-based
- Condition Info: 10 μM test substance; CHO K1 cells with rat B1R; agonist Des-Arg9-bradykinin at EC80; read-out: B1R antagonism, rat [10 μM] % inhibition
Each entry below lists one item and its recorded inhibition at 10 µM value.
Answer with a number only, understood to be in %.

Here are 5 molecules together with their reported answers.
COc1cc(C)c(S(=O)(=O)N2CCCc3ccc(CC(=O)N4CCC5(CCC(N6CCC6)CC5)CC4)cc32)c(C)c1	102
O=C(Cc1ccc2c(c1)N(S(=O)(=O)c1ccc(OC(F)(F)F)cc1Cl)CCC2)N1CCC2(CC1)CCN(c1ccncc1)CC2	101
COc1cc(C)c(S(=O)(=O)N2CCn3cc(C(=O)N4CCC5(CC4)CCN(c4ccncc4)CC5)nc3C2)c(C)c1	102
COc1cc(C)c(S(=O)(=O)N2CCCc3ccc(CC(=O)N4CCC5(CC4)CCN(c4ccncc4)CC5)nc32)c(C)c1	101
COc1cc(C)c(S(=O)(=O)N2CCOc3ccc(CC(=O)N4CCC5(CC4)CCN(c4ccncc4)CC5)cc32)c(C)c1	100

Record O=C(Cc1ccc2c(c1)N(C(=O)c1ccccc1Cl)CCC2)N1CCC2(CC1)CCN(c1ccncc1)CC2 , field inhibition at 10 µM: 96

Measured inhibition at 10 µM of COc1cc(C)c(S(=O)(=O)N2CCc3ccc(C(=O)N4CCC5(CC4)CCN(Cc4ccccc4)C5=O)cc3C2)c(C)c1 : 70

Consider O=C(c1ccc(Cl)s1)N1CCc2cccc(C(=O)N3CCC4(CC3)CCN(c3ccncc3)CC4)c2C1 . Its measured inhibition at 10 µM is 62

Item: O=C(c1ccc2c(c1)CN(S(=O)(=O)c1ccc(Cl)c3ccccc13)CC2)N1CCC2(CC1)CCN(c1ccncc1)CC2 | inhibition at 10 µM: 91

Measured inhibition at 10 µM, Cc1cccc(Cl)c1S(=O)(=O)N1CCc2cccc(C(=O)N3CCC4(CC3)CCN(c3ccncc3)CC4)c2C1 : 90

----------
- Study Target: B1R receptor of the rat (rB1R) (Rattus norvegicus)
- Construct: expressed in transfected cells; host or cells: CHO K1 cells, stably transfected
- Run Description: FLIPR Ca2+ functional study on bradykinin receptor 1, rB1R cells (CHO K1)
- Format: cell-based
- Condition Info: 10 μM test substance; CHO K1 cells with rat B1R; agonist Des-Arg9-bradykinin at EC80; read-out: B1R antagonism, rat [10 μM] % inhibition
As shown below, each of these compounds has a reported inhibition at 10 µM value.
Record the result as number plus unit.

COc1cc(C)c(S(=O)(=O)N2CCc3ccc(C(=O)N4CCC5(CC4)CCN(c4ccncc4)CC5)cc32)c(C)c1	100%
O=C(Cc1ccc2c(c1)N(S(=O)(=O)c1ccccc1C(F)(F)F)CCC2)N1CCC2(CC1)CCN(c1ccncc1)CC2	100%
Cc1cc(S(=O)(=O)N2CCc3ccc(C(=O)N4CCC5(CC4)CCN(c4ccncc4)CC5)cc32)c(C)cc1Cl	99%

# next compound below
O=C(Cc1ccc2c(c1)N(S(=O)(=O)c1ccccc1C(F)(F)F)CCC2)N1CCC2(CCN(c3ccncc3)CC2)C1 has a reported inhibition at 10 µM of 101%

----------
# inhibition at 10 µM listing for each entry below
- Study Target: human B1R receptor (hB1R) (Homo sapiens)
- Construct: expressed in transfected cells; host or cells: CHO K1 cells, stably transfected
- Sequence (P46663 whole entry): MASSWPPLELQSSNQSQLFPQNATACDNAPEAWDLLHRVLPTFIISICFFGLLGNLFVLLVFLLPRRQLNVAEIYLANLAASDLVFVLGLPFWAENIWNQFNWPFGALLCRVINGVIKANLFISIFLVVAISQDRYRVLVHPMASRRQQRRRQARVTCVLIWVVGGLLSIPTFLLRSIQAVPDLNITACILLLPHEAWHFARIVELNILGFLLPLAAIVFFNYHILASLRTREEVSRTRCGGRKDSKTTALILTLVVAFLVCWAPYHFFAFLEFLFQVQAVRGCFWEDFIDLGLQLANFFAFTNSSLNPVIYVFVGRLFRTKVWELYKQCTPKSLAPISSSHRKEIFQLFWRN
- Run Description: FLIPR Ca2+ functional study on bradykinin receptor 1, hB1R cells (CHO K1)
- Assay type: cell-based
- Condition Info: CHO-K1, 10 μM test substance; CHO K1 cells with human B1R; agonist Lys-Des-Arg9-bradykinin at EC80; read-out: B1R antagonism, human [10 μM] % inhibition
Give the number; % is assumed, so skip it.

Guide cases for inhibition at 10 µM, answers given:
COc1cc(C)c(S(=O)(=O)N2CCOc3ccc(CC(=O)N4CCC5(CC4)CCN(c4ccncc4)CC5)cc32)c(C)c1	100
O=C(Nc1ccc(Cl)c(Cl)c1)N1CCc2ccc(C(=O)N3CCC4(CC3)CCN(c3ccncc3)CC4)cc2C1	92
COc1cc(C)c(S(=O)(=O)N2CCc3onc(C(=O)N4CCC5(CC4)CCN(c4ccncc4)CC5)c3C2)c(C)c1	99
COc1cc(C)c(S(=O)(=O)N2CCCc3ccc(CC(=O)N4CCC5(CC4)CCN(c4ccncc4)CC5)nc32)c(C)c1	88
O=C(Cc1ccc2c(c1)N(C(=O)c1ccccc1Cl)CCC2)N1CCC2(CC1)CCN(c1ccncc1)CC2	59
Cc1cccc(Cl)c1S(=O)(=O)N1CCCc2ccc(CC(=O)N3CCC4(CCN(c5ccncc5)CC4)C3)cc21	100
COc1cc(C)c(S(=O)(=O)N2CCCc3ccc(CC(=O)N4CCC5(CCN(c6ccncc6)CC5)C4)cc32)c(C)c1	99
COc1cc(C)c(S(=O)(=O)N2CCCc3ccc(CC(=O)N4CCC5(CC4)CCN(C4CCC4)C5)cc32)c(C)c1	97
O=C(c1ccc2c(c1)CN(S(=O)(=O)c1ccc(F)c3ccccc13)CC2)N1CCC2(CC1)CCN(c1ccncc1)CC2	87
COc1cc(C)c(S(=O)(=O)N2CCn3cc(C(=O)N4CCC5(CC4)CCN(c4ccncc4)CC5)nc3C2)c(C)c1	100

Query O=C(c1ccc2c(c1)N(C(=O)c1ccccc1Cl)CCC2)N1CCC2(CC1)CCN(c1ccncc1)CC2 on human B1R receptor (hB1R) (Homo sapiens); inhibition at 10 µM returned: 95

Bench note, human B1R receptor (hB1R) (Homo sapiens): entry O=C(c1ccc2c(c1)CN(C(=O)c1cc3ccccc3s1)CC2)N1CCC2(CC1)CCN(c1ccncc1)CC2 , its inhibition at 10 µM = 86

Log: human B1R receptor (hB1R) (Homo sapiens), compound O=C(c1cccc2c1CN(S(=O)(=O)c1cccc(Cl)c1Cl)CC2)N1CCC2(CC1)CCN(c1ccncc1)CC2 , inhibition at 10 µM = 97

The compound COc1cc(C)c(S(=O)(=O)N2CCCc3ccc(C(=O)N4CCC5(CC4)CCN(c4ccncc4)CC5)cc32)c(C)c1 , tested on human B1R receptor (hB1R) (Homo sapiens), showed inhibition at 10 µM of 99

Param item: COc1cc(C)c(S(=O)(=O)N2CCCc3ccc(CC(=O)N4CCC5(CCC(N6CCC6)CC5)CC4)cc32)c(C)c1 ; param system: human B1R receptor (hB1R) (Homo sapiens); output inhibition at 10 µM: 91
